assay_system: EphB2 (receptor of Table 1)
assay_comment: EphB receptor specificity panel (% binding)
I'd appreciate it if you could supply % Binding values for the items below.
Answers are plain numbers, in %.

GPVERAWRPDLI (Panned on EphB4) [GPVERAWRPDLI peptide (SEQ ID NO:30)] | 2
SHKFPGPPSWMS (Panned on EphB1) [SHKFPGPPSWMS peptide (SEQ ID NO:4)] | 100
SHWPVLPFAHWQ (Panned on EphB2) [SHWPVLPFAHWQ peptide (SEQ ID NO:12)] | 100
DHNHNLYNPWRL (Panned on EphB4) [DHNHNLYNPWRL peptide (SEQ ID NO:21)] | 8
THWCHLLNCAAL (Panned on EphB2) [THWCHLLNCAAL peptide (SEQ ID NO:6)] | 89

State the recorded % Binding for every item in the following list.
1. IHWPVAPYSYLD (Panned on EphB2) [IHWPVAPYSYLD peptide (SEQ ID NO:11)]
2. FSPQGPAARNFA (Panned on EphB4) [FSPQGPAARNFA peptide (SEQ ID NO:25)]
3. NPVIGPIQRAWT (Panned on EphB4) [NPVIGPIQRAWT peptide (SEQ ID NO:27)]
4. THWKFQPWALVT (Panned on EphB1) [THWKFQPWALVT peptide (SEQ ID NO:5)]
5. DHWRILPFSLSS (Panned on EphB2) [DHWRILPFSLSS peptide (SEQ ID NO:10)]
6. TTLSQLPKSTWL (Panned on EphB1) [TTLSQLPKSTWL peptide (SEQ ID NO:2)]
7. GPVADAWLVYPR (Panned on EphB4) [GPVADAWLVYPR peptide (SEQ ID NO:32)]

Result:
100
8
0
100
100
0
5
